Give Viability (MTT) % stimulated control for every item shown.
Test system: B16 melanocytes
Assay: Viability of the cells, test of reduction of MTT
Format: cell-based
Details: 72 h; 10 μM
Could you give me the number in % stimulated control? Just the number is fine.

# Viability (MTT) % stimulated control (compound: O=C(/C=C/CCCCCCCCCCCOC1CCCCO1)N[C@@H]1CC[C@H](NC(=O)/C=C/CCCCCCCCCCCOC2CCCCO2)C1 (stereo partly shown) ) is 77

Please fill in: Viability (MTT) % stimulated control reported for O=C(N[C@H]1C[C@H]1NC(=O)C(F)=CCCCCCCCCCCCCCCCO)C(F)=CCCCCCCCCCCCCCCCO = 91

Item: O=C(N[C@H]1C[C@H]1NC(=O)/C(F)=C/CCCCCCCCCCCO)/C(F)=C/CCCCCCCCCCCO | Viability (MTT) % stimulated control: 89

Given item O=C(NC1CCC(NC(=O)C(F)=CCCCCCCCCO)C1)C(F)=CCCCCCCCCO (mixture of isomers) , the value recorded as its Viability (MTT) % stimulated control is 88

----------
I'd be grateful if you could share measured Viability (MTT) % stimulated control for these entries.
System: B16 melanocytes
Assay: Viability of the cells, test of reduction of MTT
Assay type: cell-based
Conditions: 72 h; 30 μM
Number first, unit second.

Kindly note: B16 melanocytes, O=C(N[C@@H]1CC[C@H](NC(=O)/C(F)=C\CCCCCCCOC2CCCCO2)C1)/C(F)=C\CCCCCCCOC1CCCCO1 (some centres unmarked) [c70] , Viability (MTT) % stimulated control value reported: 90 % stimulated control

// assay B16 melanocytes, entry O=C(NC1CCCC1NC(=O)C(F)=CCCCCCCCO)C(F)=CCCCCCCCO (mixture of isomers) [c46] , Viability (MTT) % stimulated control value = 77 % stimulated control

Measured Viability (MTT) % stimulated control for this entry O=C(NC1CCC(NC(=O)C(F)=CCCCCCO)C1)C(F)=CCCCCCO (centres unmarked) [c116] on B16 melanocytes: 88 % stimulated control

// Viability (MTT) % stimulated control (B16 melanocytes) for O=C(N[C@H]1CCC[C@H]1NC(=O)/C(F)=C\CCCCCCCOC1CCCCO1)/C(F)=C\CCCCCCCOC1CCCCO1 (some centres unmarked) [c67] = 71 % stimulated control

Record for O=C(NC1CC1NC(=O)C(F)=CCCCCCCCCO)C(F)=CCCCCCCCCO (mixture of isomers) [c37] under target or system B16 melanocytes: Viability (MTT) % stimulated control reported as 77 % stimulated control

Entry O=C(/C=C/CCCCCOC1CCCCO1)N[C@H]1CCC[C@H]1NC(=O)/C=C/CCCCCOC1CCCCO1 (some centres unmarked) [c27] under B16 melanocytes had Viability (MTT) % stimulated control of 89 % stimulated control

Record O=C(/C=C/CCCCCCCCCCCOC1CCCCO1)N[C@@H]1CC[C@H](NC(=O)/C=C/CCCCCCCCCCCOC2CCCCO2)C1 (some centres unmarked) [c30] ; system B16 melanocytes; Viability (MTT) % stimulated control = 76 % stimulated control

Entry O=C(N[C@H]1CCC[C@H]1NC(=O)/C(F)=C\CCCCCCCCO)/C(F)=C\CCCCCCCCO [c49] , tested on B16 melanocytes, has a reported Viability (MTT) % stimulated control of 83 % stimulated control

----------
Target: tyrosinase (DOPA oxidase) (Homo sapiens)
Construct: from tissue; host or cells: separated human epidermis from a frozen abdominoplasty (melanocytes in situ)
Assay: Screening of anti-tyrosinase activity: DOPA oxidase reaction on separated epidermis, count of DOPA positive melanocytes per mm2
Type: cell-based
Settings: DOPA positive melanocyte count per mm2 vs DOPA control; product at 30 μg/mL in DMSO
Record form. Attribute: Variation/control. Fill in for each entry.
Give the figure by itself; no unit, no explanation.

Given item O=C(O)/C=C/CCCCCCCCCCCO [Ref 3, (E)-14-Hydroxy-tetradec-2-enoic acid, reference compound] , the value recorded as its Variation/control is −15

Notebook: O=C(O)C(F)=CCCCCCCCCCCCO [Ref 4, reference compound] , Variation/control read as −36

Per the record, O=C(O)/C=C/CCCCCCCCCO [Ref 6, (E)-12-Hydroxy-dodec-2-enoic acid, reference compound] has Variation/control of −24

For this compound ( CCCCCCCCCCC/C=C/C(=O)N[C@H]1CCC[C@H]1NC(=O)/C=C/CCCCCCCCCCC ), measured Variation/control is −45

----------
Exercise: state measured Variation/control for each of the compounds provided.
Biological target: tyrosinase (DOPA oxidase) (Homo sapiens, UniProt P14679)
Construct: from tissue; host or cells: separated human epidermis from a frozen abdominoplasty (melanocytes in situ)
Sequence (P14679 19-529): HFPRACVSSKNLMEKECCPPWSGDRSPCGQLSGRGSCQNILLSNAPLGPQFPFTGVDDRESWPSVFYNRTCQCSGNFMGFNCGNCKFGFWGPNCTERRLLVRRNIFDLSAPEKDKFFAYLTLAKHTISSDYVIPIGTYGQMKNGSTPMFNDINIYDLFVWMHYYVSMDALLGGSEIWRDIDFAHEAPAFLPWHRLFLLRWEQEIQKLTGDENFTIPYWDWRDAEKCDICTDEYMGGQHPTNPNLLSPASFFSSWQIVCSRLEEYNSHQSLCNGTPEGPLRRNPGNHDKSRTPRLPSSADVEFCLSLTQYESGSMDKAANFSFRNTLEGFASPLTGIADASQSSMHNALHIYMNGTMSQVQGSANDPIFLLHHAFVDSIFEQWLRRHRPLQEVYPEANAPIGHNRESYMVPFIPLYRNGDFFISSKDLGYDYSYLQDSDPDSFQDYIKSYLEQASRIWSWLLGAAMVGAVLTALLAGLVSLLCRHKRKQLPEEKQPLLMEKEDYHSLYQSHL
Test: Screening of anti-tyrosinase activity: DOPA oxidase reaction on separated epidermis, count of DOPA positive melanocytes per mm2
Assay type: cell-based
Settings: DOPA positive melanocyte count per mm2 vs DOPA control; product at 30 μg/mL in DMSO
Form rule: numeric answer, no unit written next to it.

The compound O=C(O)/C=C/CCCCCCCCCCCCO [Ref 5, (E)-15-Hydroxy-pentadec-2-enoic acid, reference compound] showed Variation/control equal to −29

Record summary for O=C(N[C@H]1C[C@H]1NC(=O)/C(F)=C/CCCCCCCCCCCO)/C(F)=C/CCCCCCCCCCCO [c40] : reported Variation/control = −61

# compound CCCCCCCCC=CCCCCCCCC(=O)NC1CCCC1NC(=O)CCCCCCCC=CCCCCCCCC (stereo not shown) [c127] ; its Variation/control = −45

Entry under test: O=C(NC1CCC(NC(=O)C(F)=CCCCCCCCCO)C1)C(F)=CCCCCCCCCO (mixture of isomers) [c59] . Its Variation/control was −56

Form: compound = O=C(/C=C/CCCCCCCCCCCCCCO)N[C@H]1C[C@@H]1NC(=O)/C=C/CCCCCCCCCCCCCCO (relative stereo) [c93] ; Variation/control = −48

Record O=C(NC1CC1NC(=O)C(F)=CCCCCCCCCCCCCCCO)C(F)=CCCCCCCCCCCCCCCO (stereo not shown) [c42] . Reported Variation/control: −55

Reported Variation/control ( O=C(O)/C=C/CCCCCCCCCCCCCCCO [Ref 1, (E)-18-Hydroxy-octadec-2-enoic acid, reference compound] ) = −16

----------
System: B16 melanocytes
Test: Viability of the cells, test of reduction of MTT
Format: cell-based
Conditions: 72 h; 100 μM
Lab note: class by Viability (MTT) % stimulated control, see low band = under 80 % stimulated control, middle band = from 80 % stimulated control up to 90 % stimulated control, high band = 90 % stimulated control and over

### Prompt Category of O=C(NC1CCC(NC(=O)C(F)=CCCCCCOC2CCCCO2)C1)C(F)=CCCCCCOC1CCCCO1 (stereo not drawn) [c8] :
### Response low band

### Prompt Into which category would you place O=C(N[C@@H]1CC[C@H](NC(=O)/C(F)=C/CCCCCCCOC2CCCCO2)C1)/C(F)=C/CCCCCCCOC1CCCCO1 (stereo partly drawn) [c68] ?
### Response low band

### Prompt Input O=C(NC1CCC(NC(=O)C(F)=CCCCCCCCCCCCO)C1)C(F)=CCCCCCCCCCCCO (stereo not drawn) [c60] ; output its category
### Response high band

### Prompt Assign a category based on measured Viability (MTT) % stimulated control for O=C(O)C(F)=CCCCCCCCCCCCO [Ref 4, reference compound] and give only the class name.
### Response high band

### Prompt Sort O=C(N[C@H]1CCC[C@H]1NC(=O)/C(F)=C\CCCCCCCCOC1CCCCO1)/C(F)=C\CCCCCCCCOC1CCCCO1 (stereo partly drawn) [c72] into one of the categories.
### Response middle band

### Prompt Bin? O=C(NC1CCCC1NC(=O)C(F)=CCCCCCOC1CCCCO1)C(F)=CCCCCCOC1CCCCO1 (stereo not drawn) [c107]
### Response low band

### Prompt For this molecule, which bin applies? O=C(N[C@@H]1CC[C@H](NC(=O)/C(F)=C\CCCCCCCOC2CCCCO2)C1)/C(F)=C\CCCCCCCOC1CCCCO1 (stereo partly drawn) [c70]
### Response middle band

### Prompt Which category fits this record: O=C(O)C(F)=CCCCCCCCCCCCCCCCO [Ref 2, reference compound]
### Response low band

### Prompt Class label required: O=C(NC1CC1NC(=O)C(F)=CCCCCCCCCO)C(F)=CCCCCCCCCO (mixture of isomers) [c37]
### Response middle band

----------
Assignment: determine reported inhibition at 30 µM for the given compounds.
Tested on: B16 melanocytes
Test: Screening of anti-melanogenesis activity: melanin assay in B16 melanocytes stimulated with NDP-MSH
Format: cell-based
Conditions: Melanocyte, 72 h, 30 μM, read-out: Normalized data inhibition (%)
# value in %; strip the unit string

So, O=C(O)/C=C/CCCCCCCCCCCCCCCO [Ref 1, (E)-18-Hydroxy-octadec-2-enoic acid, reference compound] ? Its inhibition at 30 µM was 0

Consider O=C(/C=C/CCCCCOC1CCCCO1)N[C@H]1CCC[C@H]1NC(=O)/C=C/CCCCCOC1CCCCO1 (stereo partly shown) . Its measured inhibition at 30 µM is 12

For record O=C(O)C(F)=CCCCCCCCCCCCO [Ref 4, reference compound] the listed inhibition at 30 µM is 0

Briefly, inhibition at 30 µM measured for O=C(/C=C/CCCCCCCCCCCOC1CCCCO1)N[C@@H]1CC[C@H](NC(=O)/C=C/CCCCCCCCCCCOC2CCCCO2)C1 (stereo partly shown) : 71

These entries and their values trace back to patent US20140249105A1.
